Notes on pIC50 obtained with human mGlu5 (Homo sapiens).
Sequence (P41594 21-1212): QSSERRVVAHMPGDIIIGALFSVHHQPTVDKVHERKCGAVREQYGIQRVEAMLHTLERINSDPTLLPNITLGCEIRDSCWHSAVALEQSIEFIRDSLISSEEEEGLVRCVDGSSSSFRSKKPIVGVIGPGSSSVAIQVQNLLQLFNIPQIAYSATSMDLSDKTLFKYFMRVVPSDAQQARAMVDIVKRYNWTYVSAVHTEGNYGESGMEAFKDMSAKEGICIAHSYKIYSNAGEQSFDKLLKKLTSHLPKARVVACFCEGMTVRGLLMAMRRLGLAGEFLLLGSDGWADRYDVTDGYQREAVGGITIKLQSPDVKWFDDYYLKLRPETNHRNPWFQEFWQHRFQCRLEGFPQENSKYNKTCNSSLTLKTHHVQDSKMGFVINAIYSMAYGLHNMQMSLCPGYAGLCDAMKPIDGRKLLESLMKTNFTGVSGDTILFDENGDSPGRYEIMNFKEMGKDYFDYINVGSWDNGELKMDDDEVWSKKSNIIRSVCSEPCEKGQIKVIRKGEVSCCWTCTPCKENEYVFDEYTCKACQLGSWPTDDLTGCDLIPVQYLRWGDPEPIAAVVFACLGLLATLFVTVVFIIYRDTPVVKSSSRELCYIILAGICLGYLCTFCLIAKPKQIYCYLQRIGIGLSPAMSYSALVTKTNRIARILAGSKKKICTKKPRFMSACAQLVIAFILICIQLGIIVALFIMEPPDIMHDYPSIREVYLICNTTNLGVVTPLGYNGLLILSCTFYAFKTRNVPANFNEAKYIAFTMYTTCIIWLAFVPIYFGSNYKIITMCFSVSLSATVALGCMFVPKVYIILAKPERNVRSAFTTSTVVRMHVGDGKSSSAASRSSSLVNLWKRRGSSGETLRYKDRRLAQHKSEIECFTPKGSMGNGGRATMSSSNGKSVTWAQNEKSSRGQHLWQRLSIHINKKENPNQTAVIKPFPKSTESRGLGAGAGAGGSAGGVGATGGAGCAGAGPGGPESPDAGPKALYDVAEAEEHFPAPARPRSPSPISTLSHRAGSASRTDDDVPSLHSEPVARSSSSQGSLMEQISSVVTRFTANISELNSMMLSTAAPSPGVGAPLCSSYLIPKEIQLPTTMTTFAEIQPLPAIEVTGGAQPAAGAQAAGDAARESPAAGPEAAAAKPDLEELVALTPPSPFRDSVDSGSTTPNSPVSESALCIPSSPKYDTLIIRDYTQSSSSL
pIC50: −log10 of the molar value.

[
  {
    "molecule": "Cc1cncc(Oc2cc(C(=O)NCc3ccc(F)cn3)nc3ccsc23)c1 [Compound 28a]",
    "value relation sign": "=",
    "pIC50": 6.59
  },
  {
    "molecule": "Cc1ccc(Oc2cc(C(=O)NCc3ccc(F)cn3)nc3ccsc23)nc1 [Compound 28e]",
    "value relation sign": "=",
    "pIC50": 5.72
  },
  {
    "molecule": "Cc1ccc(Nc2cc(C(=O)NCc3ccc(F)cn3)nc3ccsc23)cn1",
    "value relation sign": "<",
    "pIC50": 4.52
  },
  {
    "molecule": "Cc1ncccc1Oc1cc(C(=O)NCc2ccc(F)cn2)nc2ccsc12 [Compound 28c]",
    "value relation sign": "<",
    "pIC50": 4.52
  },
  {
    "molecule": "Cc1ccncc1Oc1cc(C(=O)NCc2ccc(F)cn2)nc2ccsc12 [Compound 28b]",
    "value relation sign": "=",
    "pIC50": 6.69
  },
  {
    "molecule": "Cc1ccc(Cc2cc(C(=O)NCc3ccc(F)cn3)nc3ccsc23)cn1",
    "value relation sign": "<",
    "pIC50": 4.52
  }
]
